# System: male Sprague-Dawley rats
# Experiment Description: Cardiovascular Assay in anesthetized rats
# Type: in vivo
# Condition: change from vehicle, dose 3 mg/kg, rat
Test Readout: HR (%)

>  <Molecule>
CO[C@@H](C)c1c(Nc2ccc([C@H](N(C)C(=O)C3CCS(=O)(=O)CC3)C(F)(F)F)cc2)cnc2cc(Cl)nn12 [Comparative Example A, reference compound]

>  <Val>
−7%

$$$$
>  <Molecule>
CO[C@@H](C)c1c(Nc2ccc([C@H](N(C)C(=O)C3CCS(=O)(=O)CC3)C(F)(F)F)cc2)cnc2sc(C)nc12

>  <Val>
−4%

$$$$
>  <Molecule>
CO[C@H](c1c(Nc2ccc([C@H](N(C)C(=O)C3CCS(=O)(=O)CC3)C(F)(F)F)cc2)cnc2sc(C)nc12)C(F)F

>  <Val>
−1%

$$$$
>  <Molecule>
CO[C@@H](c1c(Nc2ccc([C@H](N(C)C(=O)C3CCN(C(C)=O)CC3)C(F)(F)F)cc2)cnc2sc(C)nc12)C(F)F

>  <Val>
−5%

$$$$
>  <Molecule>
CO[C@@H](C)c1c(Nc2ccc([C@H](N(C)C(=O)C3CCN(C(C)=O)CC3)C(F)(F)F)cc2)cnc2sc(C)nc12

>  <Val>
−5%

$$$$

###

# Tested on: OCI-LY3 IL6
# Experiment Description: MALT-1 Cell IL-6 AlphaLISA Assay
# Type: cell-based
# Condition: Homo sapiens; OCI-LY3 cells, 48 hours incubation; read-out: OCI-LY3 IL6 48 hour Inhibition EC50

>  <Compound>
CO[C@@H](c1c(Nc2ccc([C@H](N(C)C(=O)C3CCS(=O)(=O)CC3)C(F)(F)F)cc2)cnc2sc(C)nc12)C(F)(F)F [Example 11]

>  <Units Of Measure>
nM

>  <EC50>
390

$$$$
>  <Compound>
Cc1nc2c(C(C)C(F)F)c(Nc3ccc([C@H](N(C)C(=O)C4CCS(=O)(=O)CC4)C(F)(F)F)cc3)cnc2s1 (stereo partly drawn) [Example 16]

>  <Units Of Measure>
nM

>  <EC50>
470

$$$$
>  <Compound>
CO[C@@H](c1c(Nc2ccc([C@H](N(C)C(=O)C3CCN(C(=O)CO)CC3)C(F)(F)F)cc2)cnc2sc(C)nc12)C(F)F [Example 32]

>  <Units Of Measure>
nM

>  <EC50>
250

$$$$
>  <Compound>
CO[C@H](c1c(Nc2ccc([C@@H](C(F)F)N(C)C(=O)C3CCN(C(=O)CO)CC3)cc2)cnc2sc(C)nc12)C(F)F [Example 31]

>  <Units Of Measure>
nM

>  <EC50>
440

$$$$
>  <Compound>
Cc1nc2c([C@H](C)C(F)(F)F)c(Nc3ccc([C@H](N(C)C(=O)C4CCS(=O)(=O)CC4)C(F)(F)F)cc3)cnc2s1 (single isomer, unassigned) [Example 39]

>  <Units Of Measure>
nM

>  <EC50>
40

$$$$
>  <Compound>
CO[C@@H](C)c1c(Nc2ccc([C@@H](C(F)F)N(C)C(=O)C3CCN(C(C)=O)CC3)cc2)cnc2sc(C)nc12 [Example 29]

>  <Units Of Measure>
nM

>  <EC50>
300

$$$$

###

# Test system: OCI-LY3 IL6
# Experiment Description: MALT-1 Cell IL-6 AlphaLISA Assay
# Assay type: cell-based
# Condition: Homo sapiens; OCI-LY3 cells, 48 hours incubation; read-out: OCI-LY3 IL6 48 hour Inhibition EC50

>  <Compound>
CO[C@H](c1c(Nc2ccc([C@H](N(C)C(=O)C3CCS(=O)(=O)CC3)C(F)(F)F)cc2)cnc2sc(C)nc12)C(F)(F)F

>  <EC50 [nM]>
110

$$$$
>  <Compound>
CO[C@@H](C)c1c(Nc2ccc([C@H](N(C)C(=O)C3CCN(C(=O)[C@@H](O)CO)CC3)C(F)(F)F)cc2)cnc2sc(C)nc12

>  <EC50 [nM]>
710

$$$$
>  <Compound>
CO[C@H](c1c(Nc2ccc([C@H](N(C)C(=O)C3CCS(=O)(=O)CC3)C(F)(F)F)cc2F)cnc2sc(C)nc12)C(F)F (single isomer, unassigned)

>  <EC50 [nM]>
580

$$$$

###

# System: CYP3A4 mRNA
# Experiment Description: CYP3A4 Induction Assay (qPCR, human hepatocytes)
# Format: in vitro ADME
# Condition: cryopreserved human hepatocytes (plated), 10 μM compound, mRNA fold over vehicle (0.1% DMSO)
Test Readout: fold induction at 1 day, 10 µM

>  <Compound>
CO[C@@H](C)c1c(Nc2ccc([C@H](N(C)C(=O)C3CCN(C(=O)[C@H](O)CO)CC3)C(F)(F)F)cc2)cnc2sc(C)nc12

>  <Test Readout>
fold induction at 1 day, 10 µM

>  <Val>
1.47

$$$$
>  <Compound>
CO[C@@H](C)c1c(Nc2ccc([C@@H](C(F)F)N(C)C(=O)C3CCN(C(C)=O)CC3)cc2)cnc2sc(C)nc12

>  <Test Readout>
fold induction at 1 day, 10 µM

>  <Val>
3.29

$$$$
>  <Compound>
CO[C@H](C)c1c(Nc2ccc([C@H](N(C)C(=O)C3CCS(=O)(=O)CC3)C(F)(F)F)cc2)cnc2sc(C)nc12

>  <Test Readout>
fold induction at 1 day, 10 µM

>  <Val>
1.53

$$$$
>  <Compound>
CO[C@@H](C)c1c(Nc2ccc([C@H](N(C)C(=O)C3CCN(C(=O)[C@@H](O)CO)CC3)C(F)(F)F)cc2)cnc2sc(C)nc12

>  <Test Readout>
fold induction at 1 day, 10 µM

>  <Val>
1.49

$$$$
>  <Compound>
CO[C@@H](C)c1c(Nc2ccc([C@@H](C(F)F)N(C)C(=O)C3CCN(C(=O)CO)CC3)cc2)cnc2sc(C)nc12

>  <Test Readout>
fold induction at 1 day, 10 µM

>  <Val>
2.24

$$$$
>  <Compound>
CO[C@H](c1c(Nc2ccc([C@@H](C(F)F)N(C)C(=O)C3CCN(C(=O)CO)CC3)cc2)cnc2sc(C)nc12)C(F)(F)F

>  <Test Readout>
fold induction at 1 day, 10 µM

>  <Val>
1.9

$$$$
>  <Compound>
CO[C@@H](C)c1c(Nc2ccc([C@H](N(C)C(=O)C3CCS(=O)(=O)CC3)C(F)(F)F)cc2)cnc2sc(C(F)F)nc12

>  <Test Readout>
fold induction at 1 day, 10 µM

>  <Val>
0.413

$$$$
>  <Compound>
CO[C@@H](C)c1c(Nc2ccc([C@H](N(C)C(=O)C3CCN(C(=O)C(C)(C)O)CC3)C(F)(F)F)cc2)cnc2sc(C)nc12

>  <Test Readout>
fold induction at 1 day, 10 µM

>  <Val>
0.677

$$$$
>  <Compound>
CO[C@@H](c1c(Nc2ccc([C@H](N(C)C(=O)C3CCN(C(C)=O)CC3)C(F)(F)F)cc2)cnc2sc(C)nc12)C(F)F

>  <Test Readout>
fold induction at 1 day, 10 µM

>  <Val>
2.72

$$$$
>  <Compound>
CO[C@H](C)c1c(Nc2ccc([C@H](N(C)C(=O)C3CCN(C(=O)CO)CC3)C(F)(F)F)cc2)cnc2sc(C)nc12

>  <Test Readout>
fold induction at 1 day, 10 µM

>  <Val>
2.11

$$$$
>  <Compound>
CO[C@@H](C)c1c(Nc2ccc([C@H](N(C)C(=O)C3CCN(C(=O)[C@H](C)O)CC3)C(F)(F)F)cc2)cnc2sc(C)nc12

>  <Test Readout>
fold induction at 1 day, 10 µM

>  <Val>
1.17

$$$$
>  <Compound>
CO[C@H](c1c(Nc2ccc([C@@H](C(F)F)N(C)C(=O)C3CCS(=O)(=O)CC3)cc2)cnc2sc(C)nc12)C(F)F

>  <Test Readout>
fold induction at 1 day, 10 µM

>  <Val>
1.4

$$$$
>  <Compound>
CO[C@@H](c1c(Nc2ccc([C@H](N(C)C(=O)C3CCN(C(=O)CO)CC3)C(F)(F)F)cc2)cnc2sc(C)nc12)C(F)F

>  <Test Readout>
fold induction at 1 day, 10 µM

>  <Val>
1.2

$$$$
>  <Compound>
CO[C@@H](C)c1c(Nc2ccc([C@H](N(C)C(=O)C3CCN(C(=O)[C@@H](C)O)CC3)C(F)(F)F)cc2)cnc2sc(C)nc12

>  <Test Readout>
fold induction at 1 day, 10 µM

>  <Val>
1.16

$$$$
>  <Compound>
CO[C@H](c1c(Nc2ccc([C@@H](C(F)F)N(C)C(=O)C3CCN(C(C)=O)CC3)cc2)cnc2sc(C)nc12)C(F)(F)F

>  <Test Readout>
fold induction at 1 day, 10 µM

>  <Val>
2.19

$$$$
>  <Compound>
CO[C@H](c1c(Nc2ccc([C@H](N(C)C(=O)C3CCS(=O)(=O)CC3)C(F)(F)F)cc2)cnc2sc(C)nc12)C(F)(F)F

>  <Test Readout>
fold induction at 1 day, 10 µM

>  <Val>
1.13

$$$$
>  <Compound>
CO[C@@H](c1c(Nc2ccc([C@H](N(C)C(=O)C3CCS(=O)(=O)CC3)C(F)(F)F)cc2)cnc2sc(C)nc12)C(F)(F)F

>  <Test Readout>
fold induction at 1 day, 10 µM

>  <Val>
2.59

$$$$
>  <Compound>
CO[C@@H](C)c1c(Nc2ccc([C@@H](C(F)F)N(C)C(=O)C3CCS(=O)(=O)CC3)cc2)cnc2sc(C)nc12

>  <Test Readout>
fold induction at 1 day, 10 µM

>  <Val>
1.98

$$$$
>  <Compound>
Cc1nc2c([C@H](C)C(F)(F)F)c(Nc3ccc([C@H](N(C)C(=O)C4CCS(=O)(=O)CC4)C(F)(F)F)cc3)cnc2s1 (single isomer, unassigned)

>  <Test Readout>
fold induction at 1 day, 10 µM

>  <Val>
2.29

$$$$
